Values compiled from the RNAGym collection of RNA variant scans (doi:10.7554/elife.80360).

B1: CPEB3 Ribozyme (parent)
chain: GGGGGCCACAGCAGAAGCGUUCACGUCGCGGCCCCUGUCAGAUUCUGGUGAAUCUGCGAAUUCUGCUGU

variants of: B1; experiment: self-cleavage, relative activity (ratio to wild type); higher = more cleavage; co-transcriptional
readoutType: self-cleavage
Answer field: number only, no words.

// worked examples, self-cleavage included
changes	readoutType	numericReadout
G50U C54G	self-cleavage	0.781
C34A U38C	self-cleavage	0.492
C18A U53G	self-cleavage	0.17
U20A A60U	self-cleavage	0.117
C27G U44A	self-cleavage	0.212

Prompt: What value of measured self-cleavage is listed for C9A G14U ?
Response: 0.767

Prompt: Could you tell me which self-cleavage is on file for A10U G41C ?
Response: 0.859

Prompt: // returns reported self-cleavage for input C12A U38C
Response: 0.516

Prompt: Bench note: what self-cleavage did A16G G65A show?
Response: 0.622

Prompt: Please report the recorded self-cleavage for G25C C57U .
Response: 0.143

Prompt: // returns reported self-cleavage for input C6G A8G
Response: 0.358

Prompt: Look at this variant and give its reported self-cleavage. U49G
Response: 0.996

Prompt: Requested read-out: self-cleavage. Entry: C9A A42U
Response: 0.997

Prompt: If you can, please state the reported self-cleavage value of C24A C54A .
Response: 0.516

Prompt: Using the record for C9U U53C , report its self-cleavage.
Response: 0.931

Prompt: Entry G4U A16G has what self-cleavage?
Response: 0.444

Prompt: Reported self-cleavage for A23C C66G : what is it?
Response: 0.81

Prompt: Quick check: self-cleavage of C34G U53A ?
Response: 0.569

Prompt: Consider the variant shown here: A23U C66A What is its recorded self-cleavage?
Response: 0.886

Prompt: I would be grateful if you could share the reported self-cleavage for A8C G58C .
Response: 0.963

Prompt: I would be grateful if you could share the reported self-cleavage for G30A A60G .
Response: 0.395

Prompt: Give its self-cleavage value. Item: C29G G41U
Response: 0.21

Prompt: Consider the variant shown here: G4C A59C What is its recorded self-cleavage?
Response: 0.187

Prompt: Data request, read-out self-cleavage, for G41A G58A
Response: 0.906

Prompt: Any idea what its self-cleavage is? The variant is U61A C63G
Response: 0.516

Prompt: Fill in the blank: the reported self-cleavage of G4A U21A is ____.
Response: 0.793

Prompt: Find the recorded self-cleavage belonging to A15G U64C and report it.
Response: 0.939

Prompt: If you can, please state the reported self-cleavage value of G30C A42U .
Response: 0.41

Prompt: Report self-cleavage for C7A C35A please.
Response: 0.126
